- System: SARS-CoV-2 strain JPN/TY/WK-521
- TEST_DETAILS: Antiviral assay, quantitative VeroE6 cell-based assay with RNA-qPCR
- CONDITION_SET: VeroE6 cells, RNA-qPCR, MOI 0.05, 72 h; read-out: SARS-CoV-2 EC50
Would you mind telling me the reported EC50 of each entry?

Use the examples below as a reference point.
COc1ccc2c(c1)c(CC(=O)Oc1cncc(Cl)c1)c(C)n2C(=O)c1ccc(Cl)cc1 [C00005]; 30.2 µM
O=C(Oc1ccccc1C(=O)Oc1cncc(Cl)c1)c1ccccc1O [C00007]; 63.7 µM
Cc1cccc(C(=O)Oc2c(C)cccc2C(=O)Oc2cncc(Cl)c2)c1O [C00009]; 23.8 µM
Cc1ccc(O)c(C(=O)Oc2cncc(Cl)c2)c1 [C00012]; 46.3 µM

Kindly consider the entry below.
Query block: # query: EC50 of entry Cc1ccc(O)c(C(=O)Oc2ccc(C)cc2C(=O)Oc2cncc(Cl)c2)c1 [C00013]
Result block: 48.3 µM

====

- MEASURED_ON: UniProt P0DTD1
- TEST_DETAILS: SARS-CoV-2 3CLpro inhibition assay, continuous fluorescence with FRET substrate UIVT3
- Format: biochemical
- CONDITION_SET: 10 min pre-incubation of enzyme with compound; read-out: SARS CoV-2 3CLpro IC50
pIC50: −log10 of the molar value.
Class t: pIC50 at least 6. Class f: pIC50 below 6.

Example cases with answers are listed next.
Cc1ccc(C(=O)Oc2cncc(Cl)c2)c(O)c1; t
Cc1ccc(O)c(C(=O)Oc2cncc(Cl)c2)c1; t
Cc1cccc(O)c1C(=O)Oc1cncc(Cl)c1; f
Cc1cccc(O)c1C(=O)Oc1cccc(C)c1C(=O)Oc1cncc(Cl)c1; f
CC(=O)Oc1ccccc1C(=O)Oc1cncc(Cl)c1; t

Shifting focus to the compound that follows.
Query block: In plain terms: is recorded pIC50 at least 6 for O=C(Oc1cncc(Cl)c1)c1ccccc1O [Compound 12a, 5-chloropyridin-3-yl 2-hydroxybenzoate] ?
Result block: f

====

- System: SARS-CoV-2 strain JPN/TY/WK-521
- TEST_DETAILS: Antiviral assay, quantitative VeroE6 cell-based assay with RNA-qPCR
- CONDITION_SET: Severe acute respiratory syndrome coronavirus 2, Vero C1008, 72 h, VeroE6 cells, RNA-qPCR, MOI 0.05, 72 h; read-out: SARS-CoV-2 EC50
Would you mind telling me the reported EC50 of each entry?

O=C(Oc1ccccc1C(=O)Oc1cncc(Cl)c1)c1ccccc1O [Compound 12b]; 64 µM
CC(=O)Nc1cccc(C(=O)Oc2cncc(Cl)c2)c1; > 100 µM
COc1ccc2cc([C@@H](C)C(=O)Oc3cncc(Cl)c3)ccc2c1; > 100 µM
Cc1ccc(O)c(C(=O)Oc2ccc(C)cc2C(=O)Oc2ccc(C)cc2C(=O)Oc2cncc(Cl)c2)c1; > 100 µM

Query block: # query: EC50 of entry "O=C(Oc1cncc(Cl)c1)c1ccccc1O"
Result block: > 100 µM

====

Would you mind telling me the reported IC50 of each entry?
- MEASURED_ON: SARS-CoV-2 3CLpro (Severe acute respiratory syndrome coronavirus 2)
- TEST_DETAILS: SARS-CoV-2 3CLpro inhibition assay, continuous fluorescence with FRET substrate UIVT3
- Format: biochemical
- CONDITION_SET: values given in nM; read-out: SARS-CoV-2 3CLpro enzyme IC50
Answers are plain numbers, in nM.

COc1ccc2cc([C@@H](C)C(=O)Oc3cncc(Cl)c3)ccc2c1; 160

Give me IC50 for each of these compounds, listed below.
1. Cc1cccc(C(=O)Oc2cncc(Cl)c2)c1O [Compound 13a]
2. CC(C)Cc1ccc(C(C)C(=O)Oc2cncc(Cl)c2)cc1 (stereo not shown) [Compound 10a]
3. COc1ccc2cc([C@H](C)C(=O)Oc3cncc(Cl)c3)ccc2c1

Result block:
650
810
670
